The measurements presented in this section are drawn from patent US20100249145A1.

Test system: A549
Protocol Description: A549 wound healing inhibition (HGF dependent migration)
Type: cell-based
Conditions Used: Homo sapiens, Table 31, read-out: A549 wound healing inbib IC50
IC50 listing for selected compounds.

CN1CCN(Cc2ccc(-c3cc4nccc(Oc5ccc(NC(=S)NC(=O)Cc6ccccc6)cc5F)c4s3)cc2)CC1	< 1 µM
C#Cc1cc2nccc(Oc3ccc(NC(=S)NC(=O)Cc4ccccc4)cc3F)c2s1	> 10 µM
O=C(Cc1ccccc1)NC(=S)Nc1ccc(Nc2ccnc3ccsc23)c(F)c1	< 1 µM
C#Cc1cc(F)ccc1CC(=O)NC(=S)Nc1ccc(Oc2ccnc3cc(C4=CCN(C)CC4)sc23)c(F)c1	< 1 µM
CO/N=C(\C)c1cc2nccc(Oc3ccc(NC(=S)NC(=O)Cc4ccccc4)cc3F)c2s1	1 to 5 µM
CC(C(=O)NC(=S)Nc1ccc(Oc2ccnc3cc(-c4nccn4C)sc23)c(F)c1)c1ccccc1 (stereo not drawn)	< 1 µM
C#Cc1ccc(CC(=O)NC(=S)Nc2ccc(Oc3ccnc4cc(-c5ccc(CN(C)CCO)cc5)sc34)c(F)c2)cc1	> 10 µM
C#Cc1ccc(CC(=O)NC(=S)Nc2ccc(Oc3ccnc4cc(-c5cn(CC)cn5)sc34)c(F)c2)cc1	1 to 5 µM
C#Cc1cc(F)ccc1CC(=O)NC(=S)Nc1ccc(Oc2ccnc3cc(-c4nccn4C)sc23)c(F)c1	< 1 µM
C#Cc1cccc(CC(=O)NC(=S)Nc2ccc(Oc3ccnc4cc(-c5cn(C)cn5)sc34)c(F)c2)c1	1 to 5 µM

// next entry
Quick one: IC50 of C#Cc1ccc(CC(=O)NC(=S)Nc2ccc(Oc3ccnc4cc(-c5cn(CC)cn5)sc34)c(F)c2)cc1F ?
> 10 µM

====

Measurement Target: recombinant human c-Met/HGF receptor (Homo sapiens)
Construct: His tag (histidine tag from pBlueBacHis2A); made in house; host or cells: Hi-5 cells (Trichoplusia ni), recombinant baculovirus
Sequence (P08581 1078-1337): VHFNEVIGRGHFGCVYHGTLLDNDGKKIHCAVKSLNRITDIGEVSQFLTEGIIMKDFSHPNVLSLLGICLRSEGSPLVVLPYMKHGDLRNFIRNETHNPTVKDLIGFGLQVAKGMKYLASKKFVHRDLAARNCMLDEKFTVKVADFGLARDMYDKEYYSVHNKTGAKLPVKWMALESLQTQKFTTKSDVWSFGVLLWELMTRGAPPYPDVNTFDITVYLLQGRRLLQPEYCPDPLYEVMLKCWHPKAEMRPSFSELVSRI
Protocol Description: In vitro receptor tyrosine kinase assay (DELFIA), c-Met/HGF receptor
Type: biochemical
Conditions Used: Table 31; ATP 10 uM, enzyme 25 nM; read-out: CMet ic50
IC50 listing for selected compounds.

COCCNCc1cccc(-c2cc3nccc(Oc4ccc(NC(=S)NC(=O)Cc5ccc(F)cc5)cc4F)c3s2)n1	< 50 nM
CN(CCO)Cc1ccc(-c2cc3nccc(Oc4ccc(NC(=S)NC(=O)Cc5ccc(F)cc5)cc4F)c3s2)nc1	< 50 nM
C#Cc1ccc(CC(=O)NC(=S)Nc2ccc(Oc3ccnc4cc(-c5nccn5C)sc34)c(F)c2)cc1	50 to 250 nM

// next entry
GET /values?readout=IC50&system=recombinant human c-Met/HGF receptor (Homo sapiens)&item= CCn1cnc(-c2cc3nccc(Oc4ccc(NC(=S)NC(=O)Cc5ccccc5O)cc4F)c3s2)c1
< 50 nM

====

IC50 listing for selected molecules.
System: DU145
Protocol Description: DU145 scattering inhibition (HGF dependent scattering)
Format: cell-based
Conditions Used: Homo sapiens, DU-145, Table 31, read-out: DU145 scattering inhib IC50
Text: HGF has well known activity in terms of inducing scattering and migration (wound healing) (Wells et al., Cell Motil Cytoskeleton. 2005 November 62(3):180-94; Miura et al., Urology 2001 December 58(6):1064-9; Nishimura et al., Int J. Urol. 1998 May 5(3):276-81; Wang et al., Mol Cancer Ther. 2003 November; 2(11):1085-92; and Christensen et al., Cancer Res. 2003 Nov. 1; 63(21):7345-55).

Illustrative cases are given below, each with its answer.
C#Cc1ccc(F)c(CC(=O)NC(=S)Nc2ccc(Oc3ccnc4cc(-c5nccn5C)sc34)c(F)c2)c1	1000 to 5000 nM
C#Cc1ccc(CC(=O)NC(=S)Nc2ccc(Oc3ccnc4cc(-c5nccn5C)sc34)c(F)c2)cc1F	1000 to 5000 nM
C#Cc1ccccc1CC(=O)NC(=S)Nc1ccc(Oc2ccnc3cc(-c4cccc[n+]4[O-])sc23)c(F)c1	< 1000 nM

// next entry
Quick one: IC50 of O=C(Cc1ccccc1)NC(=S)Nc1ccc(Oc2ccnc3cc(-c4ccc(CN5CCNCC5)cc4)sc23)c(F)c1 ?
< 1000 nM

====

Tested on: DU145
Protocol Description: DU145 scattering inhibition (HGF dependent scattering)
Assay type: cell-based
Conditions Used: Homo sapiens, DU-145, Table 31, read-out: DU145 scattering inhib IC50
IC50 listing for selected compounds.

Illustrative cases are given below, each with its answer.
C=C(F)c1cccc(CC(=O)NC(=S)Nc2ccc(Oc3ccnc4cc(-c5cn(C)cn5)sc34)c(F)c2)c1	1000 to 5000 nM
CCn1ccnc1-c1cc2nccc(Oc3ccc(NC(=S)NC(=O)Cc4ccc(F)cc4F)cc3F)c2s1	< 1000 nM
C#Cc1cc(F)ccc1CC(=O)NC(=S)Nc1ccc(Oc2ccnc3cc(-c4ccc(CN5CCN(C)CC5)cc4)sc23)c(F)c1	< 1000 nM

Quick one: IC50 of CN(c1ccc(NC(=S)NC(=O)Cc2ccccc2)cc1F)c1ccnc2ccsc12 ?
5000 to 10000 nM

// query: CCn1cnc(-c2cc3nccc(Oc4ccc(NC(=S)NC(=O)Cc5ccccc5C)cc4F)c3s2)c1 [drawing 441]
< 1000 nM

// query: CN1CCN(Cc2ccc(-c3cc4nccc(Oc5ccc(NC(=S)NC(=O)Cc6ccccc6)cc5F)c4s3)nc2)CC1
< 1000 nM

// query: COc1ccccc1CC(=O)NC(=S)Nc1ccc(Oc2ccnc3cc(-c4cn(CC(N)=O)cn4)sc23)c(F)c1
1000 to 5000 nM

// query: CCCNCc1ccc(-c2cc3nccc(Oc4ccc(NC(=S)NC(=O)Cc5ccc(F)cc5)cc4F)c3s2)cc1
< 1000 nM

====

Measurement Target: VEGF receptor KDR (Homo sapiens)
Construct: made in house; host or cells: Sf9 cells (Spodoptera frugiperda), recombinant baculovirus
Protocol Description: In vitro receptor tyrosine kinase assay (DELFIA), VEGF receptor KDR
Format: biochemical
Conditions Used: Table 31; ATP 0.6 uM, enzyme 5 nM; read-out: VEGFR IC50
pIC50: −log10 of the molar value.
Property: pIC50

Quick one: pIC50 of COc1ccccc1CC(=O)NC(=S)Nc1ccc(Oc2ccnc3cc(-c4cn(CC(N)=O)cn4)sc23)c(F)c1 ?
6.60 to 7.30

// query: CN1CCN(Cc2ccc(-c3cc4nccc(Oc5ccc(NC(=S)NC(=O)Cc6ccccc6)cc5F)c4s3)nc2)CC1
> 7.30

// query: C#Cc1cc2nccc(Oc3ccc(NC(=S)NC(=O)Cc4ccccc4)cc3F)c2s1
< 6.30

// query: CN1CC=C(c2cc3nccc(Oc4ccc(NC(=S)NC(=O)Cc5ccccc5)cc4F)c3s2)CC1
6.30 to 6.60

====

Measurement Target: TPR-MET fusion protein (Homo sapiens)
Sequence (P08581 with tags, fused parts or gaps): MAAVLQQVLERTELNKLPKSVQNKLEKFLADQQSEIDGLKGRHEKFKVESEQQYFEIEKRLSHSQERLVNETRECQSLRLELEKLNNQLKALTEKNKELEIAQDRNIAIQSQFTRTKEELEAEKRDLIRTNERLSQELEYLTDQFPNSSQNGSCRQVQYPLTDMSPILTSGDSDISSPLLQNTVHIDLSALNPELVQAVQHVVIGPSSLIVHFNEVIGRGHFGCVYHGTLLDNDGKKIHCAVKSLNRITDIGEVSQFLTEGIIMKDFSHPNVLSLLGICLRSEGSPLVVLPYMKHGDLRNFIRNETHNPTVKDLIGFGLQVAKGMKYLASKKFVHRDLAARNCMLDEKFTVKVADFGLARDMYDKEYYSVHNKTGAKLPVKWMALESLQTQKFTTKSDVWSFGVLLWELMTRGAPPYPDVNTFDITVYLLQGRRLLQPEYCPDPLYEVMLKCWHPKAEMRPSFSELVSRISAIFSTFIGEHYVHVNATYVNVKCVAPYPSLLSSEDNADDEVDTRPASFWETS
Protocol Description: C-Met phosphorylation cell-based assay (MNNGHOS cells, immunoblot)
Conditions Used: Table 30, 3 hours treatment, read-out: C-Met cell-based Y1230-34-35 tpr-met inhibition (IC50)
Property: IC50

Illustrative cases are given below, each with its answer.
O=C(Cc1ccccc1)NC(=S)Nc1ccc(Oc2ccnc3cc(C(=O)NCCN4CCOCC4)sc23)c(F)c1	50 to 250 nM
NC(=O)[C@@H]1CCCN1C(=O)c1cc2nccc(Oc3ccc(NC(=S)NC(=O)Cc4ccccc4)cc3F)c2s1	50 to 250 nM
O=C(Cc1ccccc1)NC(=S)Nc1ccc(Oc2ccnc3cc(C(=O)N4CCCC4)sc23)c(F)c1	< 50 nM
O=C(Cc1ccccc1)NC(=S)Nc1ccc(Oc2ncnc3cc(C(=O)NCCN4CCOCC4)sc23)c(F)c1	< 50 nM
CN(C)C(=O)c1cc2ncnc(Oc3ccc(NC(=S)NC(=O)Cc4ccccc4)cc3F)c2s1	50 to 250 nM
O=C(Cc1ccccc1)NC(=S)Nc1ccc(Oc2ccnc3cc(-c4nccs4)sc23)c(F)c1	< 50 nM
CON(C)C(=O)c1cc2nccc(Oc3ccc(NC(=S)NC(=O)Cc4ccccc4)cc3F)c2s1	50 to 250 nM

// next entry
GET /values?readout=IC50&system=TPR-MET fusion protein (Homo sapiens)&item= O=C(Cc1ccccc1)NC(=S)Nc1ccc(Oc2ccnc3cc[nH]c23)c(F)c1
> 500 nM

====

Measurement Target: VEGF receptor KDR (Homo sapiens, UniProt P35968)
Construct: made in house; host or cells: Sf9 cells (Spodoptera frugiperda), recombinant baculovirus
Sequence (P35968 806-1356): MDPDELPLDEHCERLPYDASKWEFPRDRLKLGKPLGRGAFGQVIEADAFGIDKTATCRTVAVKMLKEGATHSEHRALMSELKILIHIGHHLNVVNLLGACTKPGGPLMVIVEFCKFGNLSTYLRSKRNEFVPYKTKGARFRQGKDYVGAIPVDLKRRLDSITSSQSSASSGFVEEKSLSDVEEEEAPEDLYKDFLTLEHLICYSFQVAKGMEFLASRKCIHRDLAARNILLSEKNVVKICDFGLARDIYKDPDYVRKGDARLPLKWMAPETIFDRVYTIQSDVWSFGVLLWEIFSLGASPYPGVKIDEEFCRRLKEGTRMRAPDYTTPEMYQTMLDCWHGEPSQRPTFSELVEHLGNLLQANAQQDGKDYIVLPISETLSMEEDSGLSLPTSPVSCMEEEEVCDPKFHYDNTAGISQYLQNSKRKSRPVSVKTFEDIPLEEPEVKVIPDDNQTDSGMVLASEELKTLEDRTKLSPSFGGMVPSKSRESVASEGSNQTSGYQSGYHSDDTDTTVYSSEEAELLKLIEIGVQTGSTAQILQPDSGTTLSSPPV
Protocol Description: In vitro receptor tyrosine kinase assay (DELFIA), VEGF receptor KDR
Type: biochemical
Conditions Used: Table 31; ATP 0.6 uM, enzyme 5 nM; read-out: VEGFR IC50
pIC50: −log10 of the molar value.
Property: pIC50

CN1CC=C(c2cc3nccc(Oc4ccc(NC(=S)NC(=O)Cc5ccc(F)cc5)cc4F)c3s2)CC1	6.30 to 6.60
CN1CCN(CCN(C)Cc2ccc(-c3cc4nccc(Oc5ccc(NC(=S)NC(=O)Cc6ccccc6)cc5F)c4s3)cc2)CC1	> 7.30

Quick one: pIC50 of CCn1cnc(-c2cc3nccc(Oc4ccc(NC(=S)NC(=O)Cc5cccc(F)c5)cc4F)c3s2)c1 ?
> 7.30

// query: CCn1cnc(-c2cc3nccc(Oc4ccc(NC(=S)NC(=O)Cc5ccccc5O)cc4F)c3s2)c1
> 7.30
